Measured values drawn from paper PMC10328743 for this set.

IC50 values for the compounds below.
target: HIV-1 IN (LEDGF/p75-dependent) (Human immunodeficiency virus type 1 group M subtype B, UniProt P12497); construct: Preparation of recombinant full-length IN and LEDGF proteins; made in house; host or cells: E. coli BL21(DE3); test: biochemical; format: biochemical; settings: strand-transfer activity in the presence of LEDGF/p75; read-out: IC50 IN LEDGF-dependent integration
Record the value in µM, omitting the unit from your answer.

Solved cases (2 shown):
compound | IC50 [µM]
O=C1Nc2ccc([N+](=O)[O-])cc2/C1=N/Nc1nc(-c2ccc(Cl)cc2)cs1 | 22.4
Cc1ccc(-c2csc(N/N=C3\C(=O)Nc4ccc([N+](=O)[O-])cc43)n2)cc1 [10a] | 32.3

From here, focus on the item given below.
Problem: Supply measured IC50 of O=C1Nc2ccc([N+](=O)[O-])cc2/C1=N/Nc1nc(-c2ccc(Br)cc2)cs1 in your reply.
Result: 15.5

====

target: HIV-1 RT-associated RDDP (Human immunodeficiency virus type 1 group M subtype B); construct: The 1:1 ratio between the p66/p51 subunits was also verified; His tag (implied only by Ni-NTA IMAC purification); made in house; host or cells: Escherichia coli M15; experiment: HIV-1 RNA-dependent DNA polymerase activity determination; assay type: biochemical
readout.type: pIC50
Keep it numeric: pIC50 is minus log10 of the concentration in mol/L.

Solved cases (2 shown):
compound | pIC50
O=C1Nc2ccc([N+](=O)[O-])cc2/C1=N/Nc1nc(-c2ccc([N+](=O)[O-])cc2)cs1 [4a] | 4.68
O=C1Nc2ccc([N+](=O)[O-])cc2/C1=N/Nc1nc(-c2ccccc2)cs1 [12a] | 4.89

From here, focus on the item given below.
Problem: Supply measured pIC50 of Cn1c(-c2ccc([N+](=O)[O-])cc2)cs/c1=N\N=C1/C(=O)Nc2ccc([N+](=O)[O-])cc21 [4c] in your reply.
Result: 5.22

====

biological target: HIV-1 RT-associated RDDP (Human immunodeficiency virus type 1 group M subtype B, UniProt P04585); construct: The 1:1 ratio between the p66/p51 subunits was also verified; His tag (implied only by Ni-NTA IMAC purification); made in house; host or cells: Escherichia coli M15; assay: HIV-1 RNA-dependent DNA polymerase activity determination; format: biochemical; settings: wt HIV-1 RT; three independent experiments, average ± standard deviation; read-out: RDDP IC50
Kindly apply the following: T if IC50 is less than 10 µM, F in every other case.

Problem: Record O=C1Nc2ccc(Cl)cc2/C1=N/Nc1nc(-c2cccc([N+](=O)[O-])c2)cs1 : is its IC50 strictly below 10 µM?
Result: F

Problem: Record Cn1c(-c2ccccc2)cs/c1=N\N=C1/C(=O)Nc2ccc([N+](=O)[O-])cc21 [12c] : is its IC50 strictly below 10 µM?
Result: T

Problem: Record N#Cc1ccc(-c2csc(N/N=C3\C(=O)Nc4ccc([N+](=O)[O-])cc43)n2)cc1 : is its IC50 strictly below 10 µM?
Result: T

Problem: Record N#Cc1ccc(-c2csc(N/N=C3\C(=O)Nc4ccc(Cl)cc43)n2)cc1 : is its IC50 strictly below 10 µM?
Result: F

Problem: Record Cc1ccc(-c2csc(N/N=C3\C(=O)Nc4ccc([N+](=O)[O-])cc43)n2)cc1 [10a] : is its IC50 strictly below 10 µM?
Result: F

Problem: Record O=C1Nc2ccc([N+](=O)[O-])cc2/C1=N/Nc1nc(-c2ccc(Cl)c(Cl)c2)cs1 : is its IC50 strictly below 10 µM?
Result: F

Problem: Record O=C1Nc2ccc(Cl)cc2/C1=N/Nc1nc(-c2ccc(F)cc2)cs1 : is its IC50 strictly below 10 µM?
Result: T

Problem: Record Cn1c(-c2ccc(Br)cc2)cs/c1=N\N=C1/C(=O)Nc2ccc([N+](=O)[O-])cc21 : is its IC50 strictly below 10 µM?
Result: F

Problem: Record Cn1c(-c2ccc(F)cc2)cs/c1=N\N=C1/C(=O)Nc2ccc([N+](=O)[O-])cc21 : is its IC50 strictly below 10 µM?
Result: F

Problem: Record Cn1c(-c2ccc(-c3ccccc3)cc2)cs/c1=N\N=C1/C(=O)Nc2ccc([N+](=O)[O-])cc21 : is its IC50 strictly below 10 µM?
Result: F

Problem: Record O=C1Nc2ccc(Cl)cc2/C1=N/Nc1nc(-c2ccccc2)cs1 [12b] : is its IC50 strictly below 10 µM?
Result: T

Problem: Record O=C1Nc2ccc([N+](=O)[O-])cc2/C1=N/Nc1nc(-c2cccc([N+](=O)[O-])c2)cs1 : is its IC50 strictly below 10 µM?
Result: F

Problem: Record COc1ccc(-c2csc(N/N=C3\C(=O)Nc4ccc(Cl)cc43)n2)cc1 [11b] : is its IC50 strictly below 10 µM?
Result: F

Problem: Record O=C1Nc2ccc(Cl)cc2C1=NNc1nc(-c2ccc(Cl)cc2)cs1 : is its IC50 strictly below 10 µM?
Result: F

Problem: Record Cc1ccc(-c2cs/c(=N\N=C3/C(=O)Nc4ccc([N+](=O)[O-])cc43)n2C)cc1 [10c] : is its IC50 strictly below 10 µM?
Result: F

Problem: Record O=C1Nc2ccc([N+](=O)[O-])cc2/C1=N/Nc1nc(-c2ccc(F)cc2)cs1 : is its IC50 strictly below 10 µM?
Result: T

Problem: Record Cn1c(-c2ccc(C#N)cc2)cs/c1=N\N=C1/C(=O)Nc2ccc([N+](=O)[O-])cc21 : is its IC50 strictly below 10 µM?
Result: F

Problem: Record Cn1c(-c2cccc([N+](=O)[O-])c2)cs/c1=N\N=C1/C(=O)Nc2ccc([N+](=O)[O-])cc21 : is its IC50 strictly below 10 µM?
Result: T

Problem: Record Cn1c(-c2ccc(Cl)cc2)cs/c1=N\N=C1/C(=O)Nc2ccc([N+](=O)[O-])cc21 : is its IC50 strictly below 10 µM?
Result: F

Problem: Record O=C1Nc2ccc([N+](=O)[O-])cc2/C1=N/Nc1nc(-c2ccc(Br)cc2)cs1 : is its IC50 strictly below 10 µM?
Result: T

Problem: Record Cn1c(-c2ccc(Cl)c(Cl)c2)cs/c1=N\N=C1/C(=O)Nc2ccc([N+](=O)[O-])cc21 : is its IC50 strictly below 10 µM?
Result: F
